biological target: influenza A RNA-dependent RNA polymerase (Influenza A virus, UniProt P03428+P03431+P03433); experiment: cell-based
pIC50: −log10 of the molar value.
property name: pIC50

# batch size: 5; output pIC50 per entry
1. COc1ccc(-c2cc3nc(C)cc(NCc4ccccc4)n3n2)cc1
2. CCc1c(C)nc2cc(-c3ccc(OC)c(OC)c3)nn2c1NCCc1ccc(OC)c(OC)c1
3. CCc1c(C)nc2cc(-c3cc(C)on3)nn2c1NCCc1ccccn1
4. COc1ccc(-c2cc3nc4c(c(NCCc5cccnc5)n3n2)CCC4)cc1OC
5. COc1ccc(-c2cc3nc4c(c(NCc5ccccc5F)n3n2)CCCC4)cc1

1: < 4.30; 2: < 5.00; 3: < 4.30; 4: < 5.00; 5: < 4.30

Please supply pIC50 for each of the following items, keeping them in order.
1. Cc1cc(NCC(O)c2cccc(O)c2)n2nc(-c3cccc(F)c3)cc2n1 (centres unmarked)
2. COc1cc(OC)cc(-c2cc3nc(C)cc(NCC(C)c4ccccc4)n3n2)c1 (centres unmarked)
3. Cc1ccc(-c2cc3nc4c(c(NCCc5ccccn5)n3n2)CCC4)cc1
4. CCc1c(C)nc2cc(-c3ccc(OC)c(OC)c3)nn2c1NCCc1ccccc1C

1: < 4.30; 2: < 4.30; 3: < 4.30; 4: ~5.30

Where do these numbers come from? They come from patent EP3079693B1.
